Measured values drawn from ChEMBL document CHEMBL2218924 for this set.

The compounds listed here are annotated with their residual activity.
- Assayed target: Interleukin-1 receptor-associated kinase 1 (Homo sapiens) (UniProt P51617)
- Sequence (P51617 whole entry, looked up): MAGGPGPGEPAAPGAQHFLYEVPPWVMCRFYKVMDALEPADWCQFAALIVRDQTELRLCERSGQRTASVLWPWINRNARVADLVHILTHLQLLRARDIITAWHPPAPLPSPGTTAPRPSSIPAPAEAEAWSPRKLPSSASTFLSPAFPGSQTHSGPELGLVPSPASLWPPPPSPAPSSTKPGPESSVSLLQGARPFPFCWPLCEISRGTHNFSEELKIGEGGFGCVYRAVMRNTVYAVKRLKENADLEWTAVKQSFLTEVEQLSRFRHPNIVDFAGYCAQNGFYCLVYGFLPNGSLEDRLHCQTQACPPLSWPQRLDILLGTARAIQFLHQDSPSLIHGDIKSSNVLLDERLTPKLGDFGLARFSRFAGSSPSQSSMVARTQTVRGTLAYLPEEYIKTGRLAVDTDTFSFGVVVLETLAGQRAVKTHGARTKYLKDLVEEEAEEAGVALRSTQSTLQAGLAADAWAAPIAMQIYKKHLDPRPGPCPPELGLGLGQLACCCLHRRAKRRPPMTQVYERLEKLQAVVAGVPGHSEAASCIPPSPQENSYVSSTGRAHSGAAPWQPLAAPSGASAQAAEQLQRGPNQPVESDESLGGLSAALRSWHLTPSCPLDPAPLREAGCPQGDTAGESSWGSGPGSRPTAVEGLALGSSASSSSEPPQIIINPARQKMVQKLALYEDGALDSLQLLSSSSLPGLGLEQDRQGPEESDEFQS
- Test conditions: at 1 µM
Measured endpoint: residual activity (%)

| Chemical smiles | Recorded number |
| --- | --- |
| O=C1Cc2c([nH]c3ccc(Br)cc23)-c2ccccc2N1 | 94 |
| Cc1cc(C)c(/C=C2\C(=O)Nc3ccccc32)[nH]1 | 76 |
| CC(C)c1nn(-c2c(Cl)cccc2Cl)c2nc(Cc3ccc(OCCO)cc3)[nH]c(=O)c12 | 103 |
| Nc1ncnc2[nH]nc(Nc3ccc(F)cc3)c12 | 93 |
| O=C(c1cc2cc(O)ccc2[nH]1)c1cc2cc(O)ccc2[nH]1 | 65 |
| COc1cc2c(cc1OC)-c1n[nH]c(Nc3cccc(F)c3)c1C2 | 73 |
| Cn1c2ccccc2c2c3c(c4c5ccccc5n(CCC#N)c4c21)CNC3=O | 47 |
| Nc1ncnc2c1cnn2-c1ccccc1 | 93 |
| O=C1Nc2ccc(Cl)cc2/C1=C/c1cc(Cl)c(O)c(Cl)c1 | 84 |
| Nc1ncnc2c1c(-c1ccc(Oc3ccccc3)cc1)cn2C1CCCC1 | 83 |
| O=C(Nc1nc2ccccc2n1CCN1CCOCC1)c1cccc([N+](=O)[O-])c1 | 11 |
| O=C1NC(=O)C(c2cn(CCCO)c3ncccc23)=C1c1cnccn1 | 98 |
| NC(=O)c1cccc(-c2cc(Nc3ccc(OC(F)(F)F)cc3)ncn2)c1 | 95 |
| O=C(O)/C=C/c1cc(Br)c(Br)c(Br)c1Br | 101 |
| COc1ccc2c(c1)c(C1=C(c3c[nH]c4ccccc34)C(=O)NC1=O)cn2CCCN(C)C | 81 |
| O=c1cc(N2CCNCC2)oc2c(-c3ccccc3)cccc12 | 92 |
| CC(C)N(CCC(=O)c1ccc2ccccc2c1)Cc1ccccc1 | 83 |
| COc1cc2nccc(Oc3ccc(NC(=O)Nc4cc(C)on4)c(Cl)c3)c2cc1OC | 82 |
| CN(C)S(=O)(=O)c1ccc2c(c1)/C(=C/c1cc3c([nH]1)CCCC3)C(=O)N2 | 9 |
| O=C(CCCc1ccc(-c2ccccc2F)cc1)Nc1ccc(O)cc1 | 78 |
| Nc1n[nH]c2nc3ccccc3nc12 | 98 |
| COc1cc2nccc(Oc3ccc(NC(=S)NC(=O)c4ccccc4C)cc3)c2cc1OC | 79 |
| NC(=O)Nc1sc(-c2ccc(F)cc2)cc1C(N)=O | 84 |

---

- Assayed target: Serine/threonine-protein kinase PAK 5 (Homo sapiens)
- Test conditions: at 1 µM

| Chemical smiles | Assayed target | Value unit | residual activity |
| --- | --- | --- | --- |
| CCCCc1c(-c2ccc(OC)cc2)[nH]c2nccnc12 | Serine/threonine-protein kinase PAK 5 (Homo sapiens) | % | 63 |
| Nc1nc(Nc2ccc(S(N)(=O)=O)cc2)nn1C(=O)c1c(F)cccc1F | Serine/threonine-protein kinase PAK 5 (Homo sapiens) | % | 71 |
| CC(C)(C)n1nc(Cc2cccc3ccccc23)c2c(N)ncnc21 | Serine/threonine-protein kinase PAK 5 (Homo sapiens) | % | 88 |

---

- Assayed target: Serine/threonine-protein kinase PLK2 (Homo sapiens)
- Test conditions: at 10 µM
- Description: Millipore: Percentage of residual kinase activity of PLK2 at 10uM relative to control. Control inhibitor: Phosphoric acid* at 0.3uM. Buffer: 8 mM MOPS pH 7.0, 0.2 mM EDTA
Response field class: string, computed from recorded residual activity by ranges L = under 80%, M = from 80% up to 90%, H = 90% and over

| Compound | Assayed target | Category label |
| --- | --- | --- |
| Nc1ncnc2c1c(-c1ccc(Oc3ccccc3)cc1)cn2C1CCCC1 | Serine/threonine-protein kinase PLK2 (Homo sapiens) | H |
| O=C(CCCc1ccc(-c2ccccc2F)cc1)Nc1ccc(O)cc1 | Serine/threonine-protein kinase PLK2 (Homo sapiens) | H |
| CCN(CC)CCNC(=O)c1c(C)[nH]c(/C=C2\C(=O)Nc3ccc(Cl)cc32)c1C | Serine/threonine-protein kinase PLK2 (Homo sapiens) | L |
| NC(=O)c1ccc(-c2nc(-c3ccc4c(c3)OCCO4)c(-c3ccccn3)[nH]2)cc1 | Serine/threonine-protein kinase PLK2 (Homo sapiens) | H |
| O=c1cc(N2CCOCC2)oc2c1ccc1ccccc12 | Serine/threonine-protein kinase PLK2 (Homo sapiens) | M |
| CSc1nc(-c2ccc(F)cc2)c(-c2ccnc(NC(C)c3ccccc3)c2)[nH]1 (stereo not given) | Serine/threonine-protein kinase PLK2 (Homo sapiens) | M |
| O=C1NC(=O)c2c1c1c3ccccc3[nH]c1n1cncc21 | Serine/threonine-protein kinase PLK2 (Homo sapiens) | L |
| N#C/C(=C1/Nc2ccccc2S1)c1ccnc(NCCc2cccnc2)n1 | Serine/threonine-protein kinase PLK2 (Homo sapiens) | L |
| Nc1ncnc2[nH]nc(Nc3ccc(F)cc3)c12 | Serine/threonine-protein kinase PLK2 (Homo sapiens) | H |
| CCCCc1c(-c2ccc(O)cc2)[nH]c2nccnc12 | Serine/threonine-protein kinase PLK2 (Homo sapiens) | M |
| Nc1nc(Nc2ccc(S(N)(=O)=O)cc2)nn1C(=O)c1c(F)cccc1F | Serine/threonine-protein kinase PLK2 (Homo sapiens) | L |
| CC(C)(C)n1nc(Cc2cccc3ccccc23)c2c(N)ncnc21 | Serine/threonine-protein kinase PLK2 (Homo sapiens) | H |
| O=C(NC(NC(=S)Nc1ccc(F)c([N+](=O)[O-])c1)C(Cl)(Cl)Cl)C(c1ccccc1)c1ccccc1 (stereo not given) | Serine/threonine-protein kinase PLK2 (Homo sapiens) | M |
| Nc1n[nH]c2nc3ccccc3nc12 | Serine/threonine-protein kinase PLK2 (Homo sapiens) | L |
| Oc1cccc(-c2nc(N3CCOCC3)c3oc4ncccc4c3n2)c1 | Serine/threonine-protein kinase PLK2 (Homo sapiens) | H |
| NC(=O)Nc1sc(-c2ccc(F)cc2)cc1C(N)=O | Serine/threonine-protein kinase PLK2 (Homo sapiens) | L |

---

- Assayed target: Mitogen-activated protein kinase 9 (Homo sapiens) (UniProt P45984)
- Sequence (P45984 whole entry, looked up): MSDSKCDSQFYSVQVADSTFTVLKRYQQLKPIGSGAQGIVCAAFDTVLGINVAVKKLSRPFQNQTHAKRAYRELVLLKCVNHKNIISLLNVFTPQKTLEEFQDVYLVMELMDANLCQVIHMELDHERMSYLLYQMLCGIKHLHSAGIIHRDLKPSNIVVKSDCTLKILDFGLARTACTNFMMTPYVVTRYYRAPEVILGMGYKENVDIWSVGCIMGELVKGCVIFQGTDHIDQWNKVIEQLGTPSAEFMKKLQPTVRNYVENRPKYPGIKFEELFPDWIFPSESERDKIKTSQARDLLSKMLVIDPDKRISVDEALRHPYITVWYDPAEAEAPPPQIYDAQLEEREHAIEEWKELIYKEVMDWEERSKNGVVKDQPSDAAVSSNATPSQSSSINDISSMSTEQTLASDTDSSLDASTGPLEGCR
- Test conditions: at 1 µM
- Description: Millipore: Percentage of residual kinase activity of MAPK9 at 1uM relative to control. Control inhibitor: Jnk Inhibitor II at 100.0uM. Buffer: 50 mM Tris pH 7.5, 0.1 mM EGTA, 0.1% ?-mercaptoethanol
Measured endpoint: residual activity (%)

| Compound | Measured endpoint | Value unit | Recorded number |
| --- | --- | --- | --- |
| Fc1ccc(-c2nc3n(c2-c2ccncc2)CCS3)cc1 | residual activity | % | 73 |
| N#Cc1c(NC(=O)c2cccc3ccccc23)sc2c1CCCC2 | residual activity | % | 58 |
| O=C1NC(=O)C(c2cn(CCCO)c3ncccc23)=C1c1cnccn1 | residual activity | % | 96 |
| NCCNc1ncc(C(N)=O)c(Nc2cccc(C(F)(F)F)c2)n1 | residual activity | % | 103 |
| COc1ccc2c(c1)c(C1=C(c3c[nH]c4ccccc34)C(=O)NC1=O)cn2CCCN(C)C | residual activity | % | 111 |
| Nc1ncnc2[nH]nc(Nc3ccc(F)cc3)c12 | residual activity | % | 92 |
| O=C(O)/C=C/c1cc(Br)c(Br)c(Br)c1Br | residual activity | % | 100 |
| O=c1c(-c2ccc(F)cc2)c(-c2ccncc2)[nH]n1-c1ccc(Cl)cc1 | residual activity | % | 7 |
| O=c1cc(N2CCOCC2)oc2c1ccc1ccccc12 | residual activity | % | 110 |
| Cc1cc(C)c(/C=C2\C(=O)Nc3ccccc32)[nH]1 | residual activity | % | 102 |
| CSc1nc(-c2ccc(F)cc2)c(-c2ccnc(NC(C)c3ccccc3)c2)[nH]1 (centres undefined) | residual activity | % | 39 |
| CC(C)c1nn(-c2c(Cl)cccc2Cl)c2nc(Cc3ccc(OCCO)cc3)[nH]c(=O)c12 | residual activity | % | 99 |
| O=C1NC(=O)C(c2cn(CCCn3ccnc3)c3ccccc23)=C1Nc1ccccc1 | residual activity | % | 110 |
| Nc1ncnc2c1c(-c1ccc(Oc3ccccc3)cc1)cn2C1CCCC1 | residual activity | % | 104 |
| Cn1sc(=O)n(Cc2ccccc2)c1=O | residual activity | % | 91 |
| O=C1Cc2c([nH]c3ccc(Br)cc23)-c2ccccc2N1 | residual activity | % | 87 |
| O=C(CCCc1ccc(-c2ccccc2F)cc1)Nc1ccc(O)cc1 | residual activity | % | 93 |
| NC(=O)Nc1sc(-c2ccc(F)cc2)cc1C(N)=O | residual activity | % | 84 |
| CC(C)(C)n1nc(Cc2cccc3ccccc23)c2c(N)ncnc21 | residual activity | % | 108 |

---

- Assayed target: Dual specificity protein kinase CLK3 (Homo sapiens)
- Test conditions: at 10 µM
The compounds listed here are annotated with their residual activity.
Measured endpoint: residual activity (%)

| Chemical smiles | Assayed target | Recorded number |
| --- | --- | --- |
| O=c1cc(N2CCNCC2)oc2c(-c3ccccc3)cccc12 | Dual specificity protein kinase CLK3 (Homo sapiens) | 100 |
| N#Cc1c(NC(=O)c2cccc3ccccc23)sc2c1CCCC2 | Dual specificity protein kinase CLK3 (Homo sapiens) | 87 |
| Fc1ccc(-c2nc3n(c2-c2ccncc2)CCS3)cc1 | Dual specificity protein kinase CLK3 (Homo sapiens) | 86 |
| NCCNc1ncc(C(N)=O)c(Nc2cccc(C(F)(F)F)c2)n1 | Dual specificity protein kinase CLK3 (Homo sapiens) | 63 |
| Cc1cc(C)c(/C=C2\C(=O)Nc3ccccc32)[nH]1 | Dual specificity protein kinase CLK3 (Homo sapiens) | 11 |
| Cn1sc(=O)n(Cc2ccccc2)c1=O | Dual specificity protein kinase CLK3 (Homo sapiens) | 74 |
| O=C1NC(=O)C(c2cn(CCCn3ccnc3)c3ccccc23)=C1Nc1ccccc1 | Dual specificity protein kinase CLK3 (Homo sapiens) | 36 |
| O=C1Nc2ccccc2/C1=C\c1c(Cl)[nH]c2ccccc12 | Dual specificity protein kinase CLK3 (Homo sapiens) | 76 |
| O=C(Nc1nc2ccccc2n1CCN1CCOCC1)c1cccc([N+](=O)[O-])c1 | Dual specificity protein kinase CLK3 (Homo sapiens) | 56 |
| Nc1ncnc2c1c(-c1ccc(Oc3ccccc3)cc1)cn2C1CCCC1 | Dual specificity protein kinase CLK3 (Homo sapiens) | 6 |
| CC(C)(C)c1nc2c3ccc(F)cc3c3c(=O)[nH]ccc3c2[nH]1 | Dual specificity protein kinase CLK3 (Homo sapiens) | 13 |
